Parameter: ED50. Scope: all listed entries.
Test system: Proteus mirabilis
Test: Activity in vivo: survival of mice infected intraperitoneally with Proteus mirabilis
Conditions: sc, 96 h; mice infected i.p. with Proteus mirabilis; compound s.c. one hour after infection; survival on 4th day; by interpolation; read-out: CD50 (dosage at which 50% of the mice survive)
Hi! Could you send only the number? It should be in mg/kg, unit omitted.

Check out these entries, answers already filled in.
CCn1nc(SCC2=C(C(=O)O)N3C(=O)[C@@H](NC(=O)C(=NOC)c4ccco4)[C@H]3SC2)[nH]c(=O)c1=O : 0.85
CON=C(C(=O)N[C@@H]1C(=O)N2C(C(=O)O)=C(CSc3nc(=O)c(=O)[nH]n3C)CS[C@H]12)c1cccs1 : 1.15

Q: Consider the compound CON=C(C(=O)N[C@@H]1C(=O)N2C(C(=O)O)=C(CSc3nc(=O)c(=O)[nH]n3C)CS[C@H]12)c1ccccc1 and give its measured ED50.
Ans: 0.6

----------
System: Haemophilus influenzae
Assay: Activity in vitro: Minimum Inhibitory Concentration
Format: cell-based
Conditions: Haemophilus influenzae strain 5
metric name: MIC

Q: Consider the molecule Cn1c(SCC2=C(C(=O)O)N3C(=O)[C@@H](NC(=O)C(=NOCC(N)=O)c4ccco4)[C@H]3SC2)n[nH]c(=O)c1=O and give its measured MIC.
Ans: 0.31 µg/mL

Q: Now consider CON=C(C(=O)N[C@@H]1C(=O)N2C(C(=O)O)=C(CSc3n[nH]c(=O)c(=O)n3C)CS[C@H]12)c1ccco1 and answer again.
Ans: 0.16 µg/mL

Q: Now consider CCn1nc(SCC2=C(C(=O)O)N3C(=O)[C@@H](NC(=O)C(=NOC)c4ccco4)[C@H]3SC2)[nH]c(=O)c1=O and answer again.
Ans: 0.08 µg/mL

Q: Now consider CON=C(C(=O)N[C@@H]1C(=O)N2C(C(=O)O)=C(CSc3ccn(N)c(=O)n3)CS[C@H]12)c1ccco1 and answer again.
Ans: 0.31 µg/mL

Q: Now consider CON=C(C(=O)N[C@@H]1C(=O)N2C(C(=O)O)=C(CSc3nc(=O)c(=O)[nH]n3C)CS[C@H]12)c1ccco1 and answer again.
Ans: 0.08 µg/mL

Q: Now consider CON=C(C(=O)N[C@@H]1C(=O)N2C(C(=O)O)=C(CSc3nc(=O)c(=O)[nH]n3C)CS[C@H]12)c1ccccc1 and answer again.
Ans: 0.08 µg/mL

Q: Now consider CON=C(C(=O)N[C@@H]1C(=O)N2C(C(=O)O)=C(CSc3nc(=O)c(=O)[nH]n3C)CS[C@H]12)c1cccs1 and answer again.
Ans: 0.08 µg/mL

----------
Parameter: LD50 at 24 h. Scope: all listed entries.
Experiment: Toxicity (mice, 24 hour values)
Settings: mouse, in vivo, iv; mice, 24 hour values

Check out these entries, answers already filled in.
CON=C(C(=O)N[C@@H]1C(=O)N2C(C(=O)O)=C(CSc3n[nH]c(=O)c(=O)n3C)CS[C@H]12)c1ccco1 : 500 to 1000 mg/kg
Cn1c(SCC2=C(C(=O)O)N3C(=O)[C@@H](NC(=O)C(=NOCC(N)=O)c4ccco4)[C@H]3SC2)n[nH]c(=O)c1=O : > 4000 mg/kg
CON=C(C(=O)N[C@@H]1C(=O)N2C(C(=O)O)=C(CSc3nc(=O)c(=O)[nH]n3C)CS[C@H]12)c1ccccc1 : 1000 to 2000 mg/kg
CON=C(C(=O)N[C@@H]1C(=O)N2C(C(=O)O)=C(CSc3nc(=O)c(=O)[nH]n3C)CS[C@H]12)c1ccco1 : 500 to 1000 mg/kg

Proceeding to the next compound to report its LD50 at 24 h.
Q: Consider the compound CON=C(C(=O)N[C@@H]1C(=O)N2C(C(=O)O)=C(CSc3ccn(N)c(=O)n3)CS[C@H]12)c1ccco1 and give its measured LD50 at 24 h.
Ans: 1000 to 2000 mg/kg

----------
Tested on: Haemophilus influenzae
Experiment: Activity in vitro: Minimum Inhibitory Concentration
Format: cell-based
Details: Haemophilus influenzae strain 2
Source text: Activity in vitro: Minimum Inhibitory Concentration (μg/ml)
metric name: MIC (µg/mL)
Hi! Could you send only the number? It should be in µg/mL, unit omitted.

Check out these entries, answers already filled in.
CON=C(C(=O)N[C@@H]1C(=O)N2C(C(=O)O)=C(CSc3n[nH]c(=O)c(=O)n3C)CS[C@H]12)c1ccco1 [Compound D] : 0.31
CON=C(C(=O)N[C@@H]1C(=O)N2C(C(=O)O)=C(CSc3nc(=O)c(=O)[nH]n3C)CS[C@H]12)c1ccco1 [Compound A] : 0.16
CON=C(C(=O)N[C@@H]1C(=O)N2C(C(=O)O)=C(CSc3nc(=O)c(=O)[nH]n3C)CS[C@H]12)c1cccs1 [Compound E] : 0.16
Cn1c(SCC2=C(C(=O)O)N3C(=O)[C@@H](NC(=O)C(=NOCC(N)=O)c4ccco4)[C@H]3SC2)n[nH]c(=O)c1=O [Compound G] : 0.63
CON=C(C(=O)N[C@@H]1C(=O)N2C(C(=O)O)=C(CSc3ccn(N)c(=O)n3)CS[C@H]12)c1ccco1 [Compound B] : 0.63

Q: Consider the molecule CON=C(C(=O)N[C@@H]1C(=O)N2C(C(=O)O)=C(CSc3nc(=O)c(=O)[nH]n3C)CS[C@H]12)c1ccccc1 [Compound C] and give its measured MIC.
Ans: 0.16

Q: Now consider CCn1nc(SCC2=C(C(=O)O)N3C(=O)[C@@H](NC(=O)C(=NOC)c4ccco4)[C@H]3SC2)[nH]c(=O)c1=O [Compound F] and answer again.
Ans: 0.31

----------
Test: Toxicity (mice, 24 hour values)
Details: mouse, in vivo, iv
metric name: LD50 at 24 h

CCn1nc(SCC2=C(C(=O)O)N3C(=O)[C@@H](NC(=O)C(=NOC)c4ccco4)[C@H]3SC2)[nH]c(=O)c1=O [Compound F] : 1000 to 2000 mg/kg

Proceeding to the next molecule to report its LD50 at 24 h.
Q: Consider the molecule CON=C(C(=O)N[C@@H]1C(=O)N2C(C(=O)O)=C(CSc3nc(=O)c(=O)[nH]n3C)CS[C@H]12)c1cccs1 [Compound E] and give its measured LD50 at 24 h.
Ans: 2000 to 4000 mg/kg

----------
Notes on MIC obtained with Proteus rettgeri.
Hi! Could you send only the number? It should be in µg/mL, unit omitted.

Check out these entries, answers already filled in.
Cn1c(SCC2=C(C(=O)O)N3C(=O)[C@@H](NC(=O)C(=NOCC(N)=O)c4ccco4)[C@H]3SC2)n[nH]c(=O)c1=O [Compound G] : 0.63
CON=C(C(=O)N[C@@H]1C(=O)N2C(C(=O)O)=C(CSc3nc(=O)c(=O)[nH]n3C)CS[C@H]12)c1ccccc1 [Compound C] : 0.63
CON=C(C(=O)N[C@@H]1C(=O)N2C(C(=O)O)=C(CSc3nc(=O)c(=O)[nH]n3C)CS[C@H]12)c1ccco1 [Compound A] : 0.63
CCn1nc(SCC2=C(C(=O)O)N3C(=O)[C@@H](NC(=O)C(=NOC)c4ccco4)[C@H]3SC2)[nH]c(=O)c1=O [Compound F] : 10
CON=C(C(=O)N[C@@H]1C(=O)N2C(C(=O)O)=C(CSc3ccn(N)c(=O)n3)CS[C@H]12)c1ccco1 [Compound B] : 2.5

Q: Request body: readout MIC, system Proteus rettgeri, query CON=C(C(=O)N[C@@H]1C(=O)N2C(C(=O)O)=C(CSc3n[nH]c(=O)c(=O)n3C)CS[C@H]12)c1ccco1 [Compound D] . Return the value.
Ans: 0.63

Q: Now consider CON=C(C(=O)N[C@@H]1C(=O)N2C(C(=O)O)=C(CSc3nc(=O)c(=O)[nH]n3C)CS[C@H]12)c1cccs1 [Compound E] and answer again.
Ans: 2.5

----------
Test system: Proteus mirabilis
Test: Activity in vivo: survival of mice infected intraperitoneally with Proteus mirabilis
Settings: sc, 96 h; mice infected i.p. with Proteus mirabilis; compound s.c. one hour after infection; survival on 4th day; by interpolation; read-out: CD50 (dosage at which 50% of the mice survive)
metric name: ED50 (mg/kg)
Hi! Could you send only the number? It should be in mg/kg, unit omitted.

Check out these entries, answers already filled in.
CON=C(C(=O)N[C@@H]1C(=O)N2C(C(=O)O)=C(CSc3nc(=O)c(=O)[nH]n3C)CS[C@H]12)c1ccco1 [Compound A] : 0.09
CON=C(C(=O)N[C@@H]1C(=O)N2C(C(=O)O)=C(CSc3n[nH]c(=O)c(=O)n3C)CS[C@H]12)c1ccco1 [Compound D] : 0.7
Cn1c(SCC2=C(C(=O)O)N3C(=O)[C@@H](NC(=O)C(=NOCC(N)=O)c4ccco4)[C@H]3SC2)n[nH]c(=O)c1=O [Compound G] : 0.8

Proceeding to the next compound to report its ED50.
Q: Request body: readout ED50, system Proteus mirabilis, query CON=C(C(=O)N[C@@H]1C(=O)N2C(C(=O)O)=C(CSc3ccn(N)c(=O)n3)CS[C@H]12)c1ccco1 [Compound B] . Return the value.
Ans: 3
